Below, each entry is listed with its recorded koff.
- target_of_assay: T1, IGF1R-Fc (extracellular domain of human IGF1R aa 1-932 fused to hinge and constant regions of human IgG1) (human, UniProt P08069 31-932)
- T1 construct: range 1-932; made in house by transient transfection, purified on Protein A; also called IGF-IR-Fc; not shown: hinge and constant regions of human IgG1
- experimental_protocol: SPR Biacore, IGF1R-Fc
assay_endpoint: koff (s⁻¹)

- I1-GS10-E5-GSGC pegylated (designed binder, PEG on the Cys of the GSGC tail of E5, alternative clone of I1-GS10-E5 pegylated; also called I1-GS10-E5-GSGC(4)) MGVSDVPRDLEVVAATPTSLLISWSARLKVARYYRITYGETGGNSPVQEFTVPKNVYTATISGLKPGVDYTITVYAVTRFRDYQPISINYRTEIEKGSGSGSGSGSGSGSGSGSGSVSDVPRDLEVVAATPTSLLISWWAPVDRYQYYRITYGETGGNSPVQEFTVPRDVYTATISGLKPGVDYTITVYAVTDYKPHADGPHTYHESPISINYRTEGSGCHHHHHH: 0.000265
- I1-GS10-E5(S91C) pegylated (designed binder, PEG on Cys at position 91 of E5 (position of SEQ ID NO: 1), also called I1-GS10-E5(S91C)(8)) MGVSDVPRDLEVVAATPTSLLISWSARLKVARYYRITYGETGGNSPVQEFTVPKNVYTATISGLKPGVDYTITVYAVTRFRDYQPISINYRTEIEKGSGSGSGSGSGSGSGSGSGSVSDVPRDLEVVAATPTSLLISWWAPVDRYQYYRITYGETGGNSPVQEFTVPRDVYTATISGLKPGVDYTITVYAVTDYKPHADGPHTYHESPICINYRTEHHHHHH: 0.000281
- I1-GS10-E5(S62C) pegylated (designed binder, PEG on Cys at position 62 of E5 (position of SEQ ID NO: 1), also called I1-GS10-E5(S62C)(6)) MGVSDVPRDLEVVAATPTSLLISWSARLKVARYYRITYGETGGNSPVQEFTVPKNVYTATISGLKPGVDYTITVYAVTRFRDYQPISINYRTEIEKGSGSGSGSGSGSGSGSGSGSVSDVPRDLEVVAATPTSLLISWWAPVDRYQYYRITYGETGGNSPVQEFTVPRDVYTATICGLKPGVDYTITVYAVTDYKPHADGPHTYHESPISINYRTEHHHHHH: 0.000279

These entries and their values trace back to patent US20180037631A1.
